sequences and their reported Kd
target: HLA-A*02:01 molecule (Homo sapiens, UniProt P04439, D140Y/D185E/D98H/E176V/E277Q/G131W/G231S/I119V/I121R/I166T/I218V/L300P/L318F/N151K/N90K/P208A/P217A/Q86G/Q94H/R138H/R169H/T345S); construct: using a cell line T2 (purchased from ATCC) expressing an HLA-A*02:01 molecule; host or cells: T2 cell line; assay: Binding of peptide to HLA-A*02:01 molecule using cell line T2; conditions: Table 2; dissociation constant Kd value (−log Kd value); >−3.0 = no significant binding ability; read-out: Measured value of allele A*02:01 (converted)
No end group written: not given here.

Illustrative cases are given below, each with its answer.
- seq text: "YTYDPPTTI [compound 3]"
  result: "0.336 µM"
- seq text: "TVLVPPRNL [compound 48]"
  result: "> 1000 µM"
- seq text: "LMITRKSFI [compound 17]"
  result: "6.26 µM"
- seq text: "SLPFSPSQF [compound 56]"
  result: "> 1000 µM"
- seq text: "VMQIDGVQP [compound 67]"
  result: "> 1000 µM"

Reported Kd, sequence SSFEFFEEA [compound 37] : ____
0.32 µM

Repeat for the following sequence: GILSDHQQS [compound 74]
> 1000 µM

Repeat for the following sequence: LHEEHGATL [compound 79]
> 1000 µM

Repeat for the following sequence: ILSDHQQSQ [compound 70]
> 1000 µM

Repeat for the following sequence: THLDAGTVE [compound 75]
> 1000 µM

Repeat for the following sequence: GRVMQIDGV [compound 68]
> 1000 µM

Repeat for the following sequence: AQISAYRTC [compound 50]
> 1000 µM

Repeat for the following sequence: LPFSPSQFL [compound 60]
> 1000 µM

Repeat for the following sequence: LPPARHSTI [compound 76]
> 1000 µM

Repeat for the following sequence: IFADVSSST [compound 78]
> 1000 µM

Repeat for the following sequence: LTITRKSFI [compound 45]
> 1000 µM
